- assayedSystem: human recombinant SSAO/VAP-1 (Homo sapiens (Human))
- Sequence (Q16853 whole entry): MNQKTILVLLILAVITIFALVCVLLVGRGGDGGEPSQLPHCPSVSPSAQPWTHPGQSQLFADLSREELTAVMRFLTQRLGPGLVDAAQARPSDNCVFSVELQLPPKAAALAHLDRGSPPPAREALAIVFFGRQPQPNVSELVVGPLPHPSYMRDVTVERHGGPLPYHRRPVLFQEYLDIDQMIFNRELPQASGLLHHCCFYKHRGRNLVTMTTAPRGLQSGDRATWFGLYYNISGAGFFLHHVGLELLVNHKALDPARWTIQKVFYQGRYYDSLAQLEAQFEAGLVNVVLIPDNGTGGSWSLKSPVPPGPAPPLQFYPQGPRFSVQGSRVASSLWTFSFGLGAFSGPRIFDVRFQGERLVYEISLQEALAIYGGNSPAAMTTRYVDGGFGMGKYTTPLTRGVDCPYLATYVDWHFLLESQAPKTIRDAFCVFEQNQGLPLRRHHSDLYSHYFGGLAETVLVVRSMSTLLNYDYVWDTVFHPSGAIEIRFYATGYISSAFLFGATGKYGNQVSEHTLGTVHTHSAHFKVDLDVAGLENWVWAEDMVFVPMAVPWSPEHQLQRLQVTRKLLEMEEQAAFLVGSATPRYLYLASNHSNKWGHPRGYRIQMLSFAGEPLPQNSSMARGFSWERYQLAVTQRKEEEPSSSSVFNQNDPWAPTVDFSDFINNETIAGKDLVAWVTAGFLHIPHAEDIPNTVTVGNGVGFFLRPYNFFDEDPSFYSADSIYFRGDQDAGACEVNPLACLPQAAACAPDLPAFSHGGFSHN
- method: Determination of inhibitory activity of human recombinant SSAO/VAP-1 (Amplex Red, benzylamine substrate)
- assayContext: 30 min pre-incubation at room temperature; read-out: SSAO/VAP-1 (Human Recombinant Protein) IC50
Structures can show the parent of a compound that is named as a salt.
propertyLabel: IC50 (nM)

Sample records with IC50:
{"molecule": "CCCNC(=O)CN1CCc2cc(OC/C(=C/F)CN)ccc2C1=O [Example 21, hydrochloride]", "IC50 (nM)": 11.8}
{"molecule": "CS(=O)(=O)CCNC(=O)CN1CCc2cc(OC/C(=C/F)CN)ccc2C1=O [Example 18, hydrochloride]", "IC50 (nM)": 8.66}
{"molecule": "CCOP(=O)(CCN1CCc2cc(OC/C(=C/F)CN)ccc2C1=O)OCC [Example 24, hydrochloride]", "IC50 (nM)": 3.67}
{"molecule": "CS(=O)(=O)CCN1CCc2cc(OC/C(=C/F)CN)ccc2C1=O [Example 25, hydrochloride]", "IC50 (nM)": 3.38}
{"molecule": "CCNC(=O)CN1CCc2cc(OC/C(=C\\F)CN)ccc2C1=O [Example 6, hydrochloride]", "IC50 (nM)": 4.12}

[I] CNC(=O)CN1CCc2cc(OC/C(=C\F)CN)ccc2C1=O [Example 4, hydrochloride]
[II] CN(C)C(=O)CN1CCc2cc(OC/C(=C/F)CN)ccc2C1=O [Example 7, hydrochloride]
[III] CN(C)C(=O)CN1CCc2cc(OC/C(=C\F)CN)ccc2C1=O [Example 8, hydrochloride]
Output the entries ranked by IC50 from maximum down to minimum. // ordering of labels required in reply
II, I, III

###

- assayedSystem: Human recombinant DAO (Homo sapiens (Human), UniProt P19801)
- Sequence (P19801 20-751): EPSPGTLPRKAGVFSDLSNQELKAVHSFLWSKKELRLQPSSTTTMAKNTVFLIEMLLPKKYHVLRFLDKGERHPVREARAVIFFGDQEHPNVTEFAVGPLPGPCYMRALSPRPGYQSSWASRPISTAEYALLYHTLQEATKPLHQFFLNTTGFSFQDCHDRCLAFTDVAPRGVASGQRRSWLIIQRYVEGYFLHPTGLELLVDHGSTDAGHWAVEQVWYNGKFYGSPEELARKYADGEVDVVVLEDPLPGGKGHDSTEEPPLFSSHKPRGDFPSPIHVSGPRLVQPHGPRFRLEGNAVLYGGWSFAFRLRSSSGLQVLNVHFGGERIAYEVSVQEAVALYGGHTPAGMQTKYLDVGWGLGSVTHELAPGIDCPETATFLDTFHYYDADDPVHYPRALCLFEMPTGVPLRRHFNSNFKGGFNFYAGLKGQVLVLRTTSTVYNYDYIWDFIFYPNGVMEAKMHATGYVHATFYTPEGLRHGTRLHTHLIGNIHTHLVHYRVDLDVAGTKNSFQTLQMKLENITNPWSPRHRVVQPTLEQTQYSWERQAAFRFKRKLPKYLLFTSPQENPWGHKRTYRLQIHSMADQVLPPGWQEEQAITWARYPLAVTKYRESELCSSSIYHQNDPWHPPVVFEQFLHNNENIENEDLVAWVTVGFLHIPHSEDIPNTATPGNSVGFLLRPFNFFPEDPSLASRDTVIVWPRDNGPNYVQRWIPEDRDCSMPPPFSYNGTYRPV
- method: Determination of selective inhibition of DAO (diamine oxidase) (Amplex Red, 1,4-diaminobutane substrate)
- assayContext: 30 min pre-incubation at 37° C.
pIC50: −log10 of the molar value. Where a name gives a salt, the structure may show the parent alone.
propertyLabel: pIC50

Sample records with pIC50:
{"compound": "CCCNC(=O)CN1CCc2cc(OC/C(=C/F)CN)ccc2C1=O [Example 21, hydrochloride]", "pIC50": "< 6.00"}
{"compound": "CN(C)C(=O)CN1CCc2cc(OC/C(=C/F)CN)ccc2C1=O [Example 7, hydrochloride]", "pIC50": "< 6.00"}
{"compound": "CC(C)NC(=O)CN1CCc2cc(OC/C(=C/F)CN)ccc2C1=O [Example 9, hydrochloride]", "pIC50": "< 6.00"}
{"compound": "CS(=O)(=O)CCN1CCc2cc(OC/C(=C/F)CN)ccc2C1=O [Example 25, hydrochloride]", "pIC50": "< 7.00"}
{"compound": "CCNC(=O)CN1CCc2cc(OC/C(=C/F)CN)ccc2C1=O [Example 5, hydrochloride]", "pIC50": "< 7.00"}

Check the records and state pIC50 for COCCNC(=O)CN1CCc2cc(OC/C(=C/F)CN)ccc2C1=O [Example 22, hydrochloride]
< 7.00

Check the records and state pIC50 for CS(=O)(=O)CCNC(=O)CN1CCc2cc(OC/C(=C/F)CN)ccc2C1=O [Example 18, hydrochloride]
< 6.00

Check the records and state pIC50 for CCOP(=O)(CCN1CCc2cc(OC/C(=C/F)CN)ccc2C1=O)OCC [Example 24, hydrochloride]
< 7.00
